fold change (FC) overview
Test system: Staphylococcus aureus
ASSAY_PROCEDURE: Antibacterial activity against MLSB/methicillin/ciprofloxacin-resistant Staphylococcus aureus PU32 harboring ermA gene assessed as reduction in microbial growth relative to ciprofloxacin
Format: functional
A bare number is all that is needed in reply.

1) CC[C@H]1OC(=O)[C@H](C)C(=O)[C@H](C)[C@@H](O[C@@H]2O[C@H](C)C[C@H](N(C)C)[C@H]2O)[C@](C)(OC)C[C@@H](C)C(=O)[C@H](C)[C@H]2N(CCCCn3cnc(-c4cccnc4)c3)C(=O)O[C@]12C | 0.0032
2) CC[C@H]1OC(=O)[C@H](C)[C@@H](OC(=O)Cc2ccccn2)[C@H](C)[C@@H](O[C@@H]2O[C@H](C)C[C@H](N(C)C)[C@H]2O)[C@](C)(OC(=O)CCNCCC#Cc2cnc3ccccc3c2)C[C@@H](C)CN(C)[C@H](C)[C@@H](O)[C@]1(C)O | 0.0054
3) CC[C@H]1OC(=O)[C@H](C)[C@@H](OC(=O)Cc2ccccn2)[C@H](C)[C@@H](O[C@@H]2O[C@H](C)C[C@H](N(C)C)[C@H]2O)[C@](C)(OC(=O)CCN2CCN(c3cc4c(cc3F)c(=O)c(C(=O)O)cn4C3CC3)CC2)C[C@@H](C)CN(C)[C@H](C)[C@@H](O)[C@]1(C)O | 0.076

## Task Report fold change (FC) for CC[C@H]1OC(=O)[C@H](C)[C@@H](OC(=O)Cc2ccccn2)[C@H](C)[C@@H](O[C@@H]2O[C@H](C)C[C@H](N(C)C)[C@H]2O)[C@](C)(OC(=O)CCNCCC#Cc2ccc3ncccc3c2)C[C@@H](C)CN(C)[C@H](C)[C@@H](O)[C@]1(C)O please.
## Result 0.0054
